Let's look at some compounds and their measured IC50.
Target: human HDAC4 (Homo sapiens)
Construct: FLAG; made in house; host or cells: 293T cells, transient transfection; anti-FLAG immunoprecipitation and FLAG peptide elution
Test: HDAC inhibitory activity in vitro (coumarin-labeled acetylated histone peptide), HDAC4
Format: biochemical
Details: Table 1; 37° C., 30 minutes; read-out: IC50 (μM) HDAC4
Where a SMILES comes first, the peptide text is derived from it. [ ]: non-standard residue; d: D form. hLys(Nζ-OH,Nζ-For) = N[C@@H](CCCCCN(O)C=O)C(=O)O
Numeric answer only, unit µM assumed.

*Q* What IC50 value was documented for this compound, CC[C@H](C)[C@@H]1NC(=O)[C@@H](Cc2ccc(OC)cc2)NC(=O)[C@H](CCCCN(O)C=O)NC(=O)[C@H]2CCCCN2C1=O ?
*A* 25.2

*Q* Which IC50 reading was recorded for the compound CC[C@H](C)[C@@H]1NC(=O)[C@@H](Cc2ccc(OC)cc2)NC(=O)[C@H](CCCCCCN(O)C=O)NC(=O)[C@@H]2CCCCN2C1=O ?
*A* 18.9

*Q* Field request: IC50 | item: CC[C@H](C)[C@@H]1NC(=O)[C@@H](Cc2ccc(OC)cc2)NC(=O)[C@H](CCCCCN(O)C=O)NC(=O)[C@@H]2CCCN2C1=O [N(OH)COH Cyclo(X-y(Me)-I-P), n = 5] (cyclo([hLys(Nζ-OH,Nζ-For)][dY](Me)IP))
*A* 0.09

* * *

Known pIC50 of a selection of molecules
Molecular target: human HDAC4 (Homo sapiens, UniProt P56524)
Construct: FLAG; made in house; host or cells: 293T cells, transient transfection; anti-FLAG immunoprecipitation and FLAG peptide elution
Sequence (P56524 whole entry): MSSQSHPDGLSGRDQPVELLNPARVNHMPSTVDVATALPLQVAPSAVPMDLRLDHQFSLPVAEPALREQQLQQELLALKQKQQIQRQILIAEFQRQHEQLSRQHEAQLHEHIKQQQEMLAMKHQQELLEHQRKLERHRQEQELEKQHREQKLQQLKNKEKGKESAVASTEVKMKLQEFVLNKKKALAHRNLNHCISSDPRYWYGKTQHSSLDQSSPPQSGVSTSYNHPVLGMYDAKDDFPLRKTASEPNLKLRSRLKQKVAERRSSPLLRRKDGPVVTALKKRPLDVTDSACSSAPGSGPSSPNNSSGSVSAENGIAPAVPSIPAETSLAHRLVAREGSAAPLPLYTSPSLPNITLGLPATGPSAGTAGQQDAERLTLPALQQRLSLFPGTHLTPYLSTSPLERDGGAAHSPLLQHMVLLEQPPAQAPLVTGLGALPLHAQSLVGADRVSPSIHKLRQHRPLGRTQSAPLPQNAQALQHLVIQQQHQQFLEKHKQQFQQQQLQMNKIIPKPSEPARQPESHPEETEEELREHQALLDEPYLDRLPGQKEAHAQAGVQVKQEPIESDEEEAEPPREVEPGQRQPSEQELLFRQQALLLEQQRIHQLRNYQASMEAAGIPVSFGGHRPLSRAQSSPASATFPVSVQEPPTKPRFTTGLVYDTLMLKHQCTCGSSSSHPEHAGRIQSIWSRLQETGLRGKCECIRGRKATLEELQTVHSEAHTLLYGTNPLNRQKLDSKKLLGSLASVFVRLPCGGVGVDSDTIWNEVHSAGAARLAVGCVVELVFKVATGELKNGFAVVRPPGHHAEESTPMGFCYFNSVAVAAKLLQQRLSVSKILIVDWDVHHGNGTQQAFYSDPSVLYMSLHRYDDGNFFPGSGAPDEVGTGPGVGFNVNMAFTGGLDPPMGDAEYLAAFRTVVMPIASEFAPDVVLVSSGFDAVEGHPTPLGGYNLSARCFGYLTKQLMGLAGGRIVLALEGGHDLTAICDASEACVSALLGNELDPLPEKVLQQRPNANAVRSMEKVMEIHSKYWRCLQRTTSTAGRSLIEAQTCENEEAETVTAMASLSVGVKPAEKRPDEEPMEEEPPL
Experiment: HDAC inhibitory activity in vitro (coumarin-labeled acetylated histone peptide), HDAC4
Type: biochemical
Where a SMILES comes first, the peptide text is derived from it. [ ]: non-standard residue; d: D form. The star is where a group is joined. hLys(Nζ-OH,Nζ-For) = N[C@@H](CCCCCN(O)C=O)C(=O)O; Asu = N[C@@H](CCCCCC(=O)O)C(=O)O; dPip = O=C(O)[C@H]1CCCCN1; X3 = Sc1ccccc1N*
Value format note: pIC50 is -log10 of concentration (mol/L); just state the number.

*Q* API: value(readout=pIC50, system=human HDAC4 (Homo sapiens, UniProt P56524)) for record CC[C@H](C)[C@@H]1NC(=O)[C@@H](Cc2ccc(OC)cc2)NC(=O)[C@H](CCCCCC(=O)C(F)(F)C(F)(F)F)NC(=O)[C@H]2CCCN2C1=O [Pfek, cyclo(-L-Pfe-D-Tyr(Me)-L-Ile-D-Pro-)]
*A* 5.91

*Q* Lookup: pIC50 / human HDAC4 (Homo sapiens, UniProt P56524) / CC[C@H](C)[C@@H]1NC(=O)[C@@H](Cc2ccc(OC)cc2)NC(=O)[C@H](CCCCCC(=O)Nc2ccccc2S)NC(=O)[C@H]2CCCN2C1=O [OATP, cyclo(L-Asu(OATP)-D-Tyr(Me)-L-Ile-D-Pro)] (cyclo([Asu](X3)[dY](Me)I[dP]))
*A* 6.64

*Q* Form field: pIC50 recorded for CC[C@H](C)[C@@H]1NC(=O)[C@@H](Cc2ccc(OC)cc2)NC(=O)[C@H](CCCCCN(O)C=O)NC(=O)[C@H]2CCCCN2C1=O [N(OH)COH Cyclo(X-y(Me)-I-pip), n = 5] (cyclo(I[dPip][hLys(Nζ-OH,Nζ-For)][dY](Me))) with human HDAC4 (Homo sapiens, UniProt P56524) (enter value)
*A* 6.89
